test system: LXRa:RXRa (NR concentration 270 nM, RXRa partner concentration 90 nM); experiment: PBM binding z-score (relative to random genomic background probes); higher = stronger binding; sequences stand for … in GC…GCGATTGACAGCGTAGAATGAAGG
Readings of PBM binding z-score for the listed sequences
Just the number.

Take a look at these entries with their results.
> print(dat)
                        sequence.data             endpoint  readout.value
1  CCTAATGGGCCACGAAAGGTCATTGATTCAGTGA  PBM binding z-score           5.44
2  CGTCAAAGTTCAACTAAGGTAATGTAAAGCACGC  PBM binding z-score           6.36

The value of PBM binding z-score recorded for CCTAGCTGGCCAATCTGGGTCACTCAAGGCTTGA when tested on LXRa:RXRa (NR concentration 270 nM, RXRa partner concentration 90 nM) reads 0.35

Let me check: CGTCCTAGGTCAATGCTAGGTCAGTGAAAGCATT , system LXRa:RXRa (NR concentration 270 nM, RXRa partner concentration 90 nM), measured PBM binding z-score is 3.83

====

tested on: LXRa homodimer (NR concentration 270 nM); test: PBM binding z-score (relative to random genomic background probes); higher = stronger binding; sequences stand for … in GC…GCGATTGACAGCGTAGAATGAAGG
Readings of PBM binding z-score for the listed sequences
Number, no unit, nothing else.

> print(dat)
                        sequence.data             endpoint  readout.value
1  GCGACTGGGGCAATGCAGGTTACCATAAGGTTGG  PBM binding z-score         -0.566

PBM binding z-score recorded for this sequence, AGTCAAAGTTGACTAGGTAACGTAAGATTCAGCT , is -0.527

Entry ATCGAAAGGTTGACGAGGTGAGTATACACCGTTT — recorded PBM binding z-score = -0.233

PBM binding z-score recorded for this sequence, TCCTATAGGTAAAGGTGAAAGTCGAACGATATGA , is -0.0559

TCTTGTAGATCAACAGCAGGTTAAGAAAGATCGA yielded PBM binding z-score of -0.0928

# PBM binding z-score (sequence: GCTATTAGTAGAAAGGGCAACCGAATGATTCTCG ) is -0.00158

====

system: PPARg:RXRa 30nM:10nM, anti-RXR (NR concentration 30 nM, RXRa partner concentration 10 nM); assay: PBM binding z-score (relative to random genomic background probes); higher = stronger binding; sequences stand for … in GC…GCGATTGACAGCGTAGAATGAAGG
endpoint: PBM binding z-score

Consider the following illustrative entries.
> print(dat)
                         sequence.data                             system.tested             endpoint  readout.value
 1  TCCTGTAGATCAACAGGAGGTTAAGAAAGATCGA  PPARg:RXRa 30nM:10nM, anti-RXR (NR concentration 30 nM, RXRa partner concentration 10 nM)  PBM binding z-score           2.01
 2  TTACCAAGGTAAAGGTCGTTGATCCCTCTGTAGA  PPARg:RXRa 30nM:10nM, anti-RXR (NR concentration 30 nM, RXRa partner concentration 10 nM)  PBM binding z-score            5.9
 3  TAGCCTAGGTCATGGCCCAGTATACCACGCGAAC  PPARg:RXRa 30nM:10nM, anti-RXR (NR concentration 30 nM, RXRa partner concentration 10 nM)  PBM binding z-score           1.14
 4  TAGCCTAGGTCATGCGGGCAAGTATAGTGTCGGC  PPARg:RXRa 30nM:10nM, anti-RXR (NR concentration 30 nM, RXRa partner concentration 10 nM)  PBM binding z-score          0.322
 5  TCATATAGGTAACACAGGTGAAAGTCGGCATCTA  PPARg:RXRa 30nM:10nM, anti-RXR (NR concentration 30 nM, RXRa partner concentration 10 nM)  PBM binding z-score           4.15
 6  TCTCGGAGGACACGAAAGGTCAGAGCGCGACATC  PPARg:RXRa 30nM:10nM, anti-RXR (NR concentration 30 nM, RXRa partner concentration 10 nM)  PBM binding z-score           2.26
 7  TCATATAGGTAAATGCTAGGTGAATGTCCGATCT  PPARg:RXRa 30nM:10nM, anti-RXR (NR concentration 30 nM, RXRa partner concentration 10 nM)  PBM binding z-score           3.49
 8  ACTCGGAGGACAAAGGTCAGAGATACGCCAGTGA  PPARg:RXRa 30nM:10nM, anti-RXR (NR concentration 30 nM, RXRa partner concentration 10 nM)  PBM binding z-score           6.73
 9  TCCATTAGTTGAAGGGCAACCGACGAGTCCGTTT  PPARg:RXRa 30nM:10nM, anti-RXR (NR concentration 30 nM, RXRa partner concentration 10 nM)  PBM binding z-score           3.64
10  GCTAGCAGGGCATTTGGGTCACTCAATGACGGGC  PPARg:RXRa 30nM:10nM, anti-RXR (NR concentration 30 nM, RXRa partner concentration 10 nM)  PBM binding z-score         -0.197

Note to self: PBM binding z-score recorded for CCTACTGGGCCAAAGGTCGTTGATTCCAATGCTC was 9.46

// recorded PBM binding z-score for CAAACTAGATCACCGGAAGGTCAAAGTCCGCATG : 0.824

// PBM binding z-score lookup, sequence = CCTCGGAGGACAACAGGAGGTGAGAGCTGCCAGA , result: -0.83

PBM binding z-score in this record for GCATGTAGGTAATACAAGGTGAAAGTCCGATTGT : 0.458

Record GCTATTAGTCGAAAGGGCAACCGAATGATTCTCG . Reported PBM binding z-score: 2.32

Item: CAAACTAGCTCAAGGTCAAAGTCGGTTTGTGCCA | PBM binding z-score: 0.947

So for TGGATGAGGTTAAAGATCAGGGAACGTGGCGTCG , the logged PBM binding z-score turned out to be 3.49

Query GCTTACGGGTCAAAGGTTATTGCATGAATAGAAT yields PBM binding z-score of 8.78

Please fill in: PBM binding z-score reported for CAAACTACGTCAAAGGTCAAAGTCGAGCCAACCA = 6.79

Measured PBM binding z-score of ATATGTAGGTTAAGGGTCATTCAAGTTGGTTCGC : 9.8

sequence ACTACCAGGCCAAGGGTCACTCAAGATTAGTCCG , PBM binding z-score observed: 6.65

PBM binding z-score reading for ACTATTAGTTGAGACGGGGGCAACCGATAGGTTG : 1.24

// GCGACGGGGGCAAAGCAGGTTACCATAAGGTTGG : PBM binding z-score value = 1.84

Reported PBM binding z-score ( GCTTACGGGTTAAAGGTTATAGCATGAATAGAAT ) = 6.81

Just so you know, measured PBM binding z-score for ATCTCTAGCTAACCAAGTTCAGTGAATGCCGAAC came out at -0.294

Measured PBM binding z-score of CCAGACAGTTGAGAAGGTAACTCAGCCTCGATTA : 0.0704
